test system: CDK2; test: qPCR assay for CDK2 expression in SK-MEL-5 cells; assay type: cell-based, human; settings: Homo sapiens; SK-MEL-5 melanoma cells, up to 35 μM
readout.type: pEC50
Worth noting: pEC50 values are minus log10 of concentrations stated in mol/L.

State the recorded pEC50 for this entry: NS(=O)(=O)c1ccc(NC2=CC(=O)c3ccccc3C2=O)cc1
6.30

###

target: Potassium Channel hERG (Homo sapiens, UniProt Q12809); construct: Eurofins Panlabs; test: Radioligand binding, Potassium Channel hERG
Sequence (Q12809 whole entry): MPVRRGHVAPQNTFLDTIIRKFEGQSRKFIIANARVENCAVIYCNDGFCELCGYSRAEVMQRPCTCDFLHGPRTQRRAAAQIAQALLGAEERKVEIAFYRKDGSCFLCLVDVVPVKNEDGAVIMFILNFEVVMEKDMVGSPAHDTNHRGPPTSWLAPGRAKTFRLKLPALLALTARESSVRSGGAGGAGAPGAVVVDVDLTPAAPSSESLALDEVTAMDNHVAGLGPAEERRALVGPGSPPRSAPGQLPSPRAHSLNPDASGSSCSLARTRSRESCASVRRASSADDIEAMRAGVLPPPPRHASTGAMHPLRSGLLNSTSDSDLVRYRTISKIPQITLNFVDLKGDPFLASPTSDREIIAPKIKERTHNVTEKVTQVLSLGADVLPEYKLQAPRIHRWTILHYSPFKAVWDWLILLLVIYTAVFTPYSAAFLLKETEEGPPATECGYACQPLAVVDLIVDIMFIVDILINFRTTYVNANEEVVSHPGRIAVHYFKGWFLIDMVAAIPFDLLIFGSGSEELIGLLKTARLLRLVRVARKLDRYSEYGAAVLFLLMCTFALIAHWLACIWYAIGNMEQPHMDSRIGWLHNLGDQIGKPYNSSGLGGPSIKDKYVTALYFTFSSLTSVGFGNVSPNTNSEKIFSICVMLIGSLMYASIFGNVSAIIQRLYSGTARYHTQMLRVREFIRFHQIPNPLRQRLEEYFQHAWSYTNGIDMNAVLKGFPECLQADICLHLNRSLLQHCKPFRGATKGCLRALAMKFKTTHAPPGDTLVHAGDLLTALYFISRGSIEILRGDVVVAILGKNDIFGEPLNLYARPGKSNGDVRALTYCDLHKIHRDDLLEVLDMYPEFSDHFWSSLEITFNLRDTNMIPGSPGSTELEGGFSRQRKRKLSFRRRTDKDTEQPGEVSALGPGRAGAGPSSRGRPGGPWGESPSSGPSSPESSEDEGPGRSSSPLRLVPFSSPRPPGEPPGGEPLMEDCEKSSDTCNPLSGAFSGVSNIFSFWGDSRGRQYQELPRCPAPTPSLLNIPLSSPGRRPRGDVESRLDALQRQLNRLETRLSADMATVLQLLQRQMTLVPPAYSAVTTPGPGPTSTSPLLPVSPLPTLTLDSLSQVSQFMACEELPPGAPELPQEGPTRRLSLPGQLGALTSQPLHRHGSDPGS
readout.type: inhibition at 10 µM (%)
# number only, unit % dropped from output

Fill in the blank: the reported inhibition at 10 µM of NS(=O)(=O)c1ccc(NC2=CC(=O)c3ccccc3C2=O)cc1 is ____.
-4

###

Test system: TRPM-1 promoter
Assay: SK-MEL-5 TRPM-1 luciferase reporter (TRPM-1 promoter activity assay)
Format: cell-based
Details: Homo sapiens; SK-MEL-5 TRPM-1:luc cells, 24 hours, SteadyGlo; read-out: Target Potency IC50 (μM) TRPM1
Protocol: The TRPM1 luciferase promoter construct was transfected into the SK-MEL-5 melanoma cell line and a stable cell line was generated. This promoter is exquisitely sensitive to MITF over-expression and suppression and contains three canonical E-box motifs within the cloned promoter fragment (17). […] On day 2, 20 uL of SteadyGlo (Promega) was added per well and luminescence signal was determined with the Perkin-Elmer EnVision plate reader. Primary HTS data were analyzed in Genedata Screener Assay Analyzer. […]
readout.type: IC50 (µM)
Answer format: numeric, µM implied, no suffix.

Consider the compound shown here: NS(=O)(=O)c1ccc(NC2=CC(=O)c3ccccc3C2=O)cc1 What is its recorded IC50?
1.2
